All values here come from ChEMBL document CHEMBL3124762.

Target Entity: Bcl-2-like protein 1 (Homo sapiens, UniProt Q07817)
Sequence (Q07817 whole entry): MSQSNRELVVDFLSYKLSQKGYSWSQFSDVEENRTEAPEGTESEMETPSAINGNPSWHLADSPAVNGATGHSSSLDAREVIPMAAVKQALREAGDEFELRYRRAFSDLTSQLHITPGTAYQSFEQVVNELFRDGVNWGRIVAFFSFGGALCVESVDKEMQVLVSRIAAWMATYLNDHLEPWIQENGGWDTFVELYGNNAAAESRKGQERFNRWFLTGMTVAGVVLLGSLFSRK
Test: Direct binding affinity to Bcl-XL (unknown origin) pre-saturated with 26-mer-wt-Bim assessed as dissociation constant measured for 120 secs by surface plasmon resonance
Recorded Metric: Kd (µM)

P: CCCN(C(=O)N[C@@H](CSCC(C)C)C(=O)O)C(=O)c1cccc(C#Cc2ccc(F)cc2F)c1
Q: CCCN(C(=O)N[C@@H](CSCc1ccc(Br)cc1)C(=O)O)C(=O)c1cccc(C#Cc2ccc(F)cc2F)c1
Which is greater in Kd, the first item P or the second item Q ? Record your answer as the label of the chosen record.
Q

* * *

Test: Inhibition of binding of wild type mBIMBH3 peptide to human Bcl-2 delta C22 mutant by surface plasmon resonance competition experiment
Recorded Metric: pIC50
Here pIC50 is given on a logarithmic scale as minus log10 of the concentration in mol/L.

Could you share which pIC50 value was measured for O=C(NS(=O)(=O)c1ccc(NCCSc2ccccc2)c([N+](=O)[O-])c1)c1ccc(-c2ccc(F)cc2)cc1 ?
4.83

* * *

Target Entity: Bcl-2-like protein 1 (Homo sapiens)
Test: Direct binding affinity to free Bcl-XL (unknown origin) assessed as […] measured for 60 secs by surface plasmon resonance
pKd: −log10 of the molar value.
Recorded Metric: pKd

CCCN(C(=O)N[C@@H](CSCC(C)C)C(=O)O)C(=O)c1cccc(C#Cc2ccc(F)cc2F)c1: 5.31
CCCN(C(=O)N[C@@H](CSCc1ccc(Br)cc1)C(=O)O)C(=O)c1cccc(C#Cc2ccc(F)cc2F)c1: 5.16

* * *

Test: Inhibition of binding of wild type mBIMBH3 peptide to human/mouse chimeric MCL1 by surface plasmon resonance competition experiment
Recorded Metric: pIC50
Convention used: pIC50 is expressed as -log10 of the molar concentration.

Returns the measured pIC50 for the input molecule. Input: O=C(NS(=O)(=O)c1ccc(NCCSc2ccccc2)c([N+](=O)[O-])c1)c1ccc(-c2ccc(F)cc2)cc1
4.66
